Hey, just so you know, these numbers are from paper PMC9032693.

target.desc: CKα1 (Homo sapiens, UniProt P35790)
Construct: an N-terminally His-tagged truncated form of CKα1 (Δ75–457) was cloned into a pET-28a vector; His tag (N); made in house; host or cells: E. coli BL21 (DE3) Star
Sequence (P35790 75-457): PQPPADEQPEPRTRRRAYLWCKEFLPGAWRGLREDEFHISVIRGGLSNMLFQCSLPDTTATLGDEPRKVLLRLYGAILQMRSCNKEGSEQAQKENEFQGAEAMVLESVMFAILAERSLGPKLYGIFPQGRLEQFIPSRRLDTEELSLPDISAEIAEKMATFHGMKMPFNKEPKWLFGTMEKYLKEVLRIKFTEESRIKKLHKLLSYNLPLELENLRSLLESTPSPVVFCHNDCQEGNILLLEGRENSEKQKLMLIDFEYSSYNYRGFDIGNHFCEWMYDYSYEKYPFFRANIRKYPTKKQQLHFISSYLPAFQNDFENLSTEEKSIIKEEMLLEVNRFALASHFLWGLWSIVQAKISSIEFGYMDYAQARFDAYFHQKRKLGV
assay.name: Choline kinase assay ([methyl-14C]choline into PCho, purified enzyme)
Assay type: biochemical
settings: concentration required to inhibit CKα1 enzyme by 50%; listed as Fa-34
measured.metric: IC50 (µM)

{"columns": ["record.smiles", "target.desc", "numeric.value"],
 "data": [
  ["[Br-].[Br-].c1cc2c(s1)c(N1CCCCCC1)nc[n+]2Cc1ccc(OCCOc2ccc(C[n+]3cnc(N4CCCCCC4)c4sccc43)cc2)cc1", "CKα1 (Homo sapiens, UniProt P35790)", 0.704]
]}

* * *

Test system: Jurkat
assay.name: Antiproliferative activity, resazurin assay, 72 h
Assay type: cell-based, human

{"columns": ["record.smiles", "GI50"],
 "data": [
  ["CN(c1ccc(Cl)cc1)c1nc[n+](Cc2ccc(-c3ccc(C[n+]4cnc(N(C)c5ccc(Cl)cc5)c5ccsc54)cc3)cc2)c2sccc12", "> 10 µM"],
  ["[Br-].[Br-].c1cc2c(s1)c(N1CCCC1)cc[n+]2Cc1ccc(OCCOc2ccc(C[n+]3ccc(N4CCCC4)c4sccc43)cc2)cc1", "> 10 µM"],
  ["[Br-].[Br-].c1cc2c(N3CCCC3)nc[n+](Cc3ccc(CCc4ccc(C[n+]5cnc(N6CCCC6)c6ccsc65)cc4)cc3)c2s1", "> 10 µM"]
]}

* * *

Readings of % Inhibition at 30 µM for the listed molecules
target.desc: CKα1 (Homo sapiens)
Construct: an N-terminally His-tagged truncated form of CKα1 (Δ75–457) was cloned into a pET-28a vector; His tag (N); made in house; host or cells: E. coli BL21 (DE3) Star
assay.name: Choline kinase assay ([methyl-14C]choline into PCho, purified enzyme)
Assay type: biochemical
settings: purified CKα1, inhibitor 30 µM, end-point assay

{"columns": ["record.smiles", "% Inhibition at 30 µM"],
 "data": [
  ["[Br-].[Br-].c1cc2c(s1)c(N1CCCCCC1)cc[n+]2Cc1ccc(-c2ccc(C[n+]3ccc(N4CCCCCC4)c4sccc43)cc2)cc1", "96.98%"],
  ["[Br-].[Br-].c1cc2c(N3CCCCC3)nc[n+](Cc3ccc(OCCOc4ccc(C[n+]5cnc(N6CCCCC6)c6ccsc65)cc4)cc3)c2s1", "85.71%"],
  ["[Br-].[Br-].c1cc2c(N3CCCCC3)nc[n+](Cc3ccc(CCc4ccc(C[n+]5cnc(N6CCCCC6)c6ccsc65)cc4)cc3)c2s1", "74.39%"],
  ["[Br-].[Br-].c1cc2c(N3CCCC3)nc[n+](Cc3ccc(CCCCc4ccc(C[n+]5cnc(N6CCCC6)c6ccsc65)cc4)cc3)c2s1", "80.09%"],
  ["[Br-].[Br-].c1cc2c(s1)c(N1CCCC1)nc[n+]2Cc1ccc(CCc2ccc(C[n+]3cnc(N4CCCC4)c4sccc43)cc2)cc1", "85.87%"],
  ["[Br-].[Br-].c1cc2c(s1)c(N1CCCC1)nc[n+]2Cc1ccc(CCCCc2ccc(C[n+]3cnc(N4CCCC4)c4sccc43)cc2)cc1", "95.88%"]
]}

* * *

Test system: HeLa
assay.name: Antiproliferative activity, resazurin assay, 72 h
Format: cell-based, human
Experimental: Human cervix carcinoma (HeLa), Non-small lung adenocarcinoma (A549), Colon adenocarcinoma (HT29), and human triple negative breast cancer (MDA-MB-231) were cultured in Dulbecco’s modified Eagle’s media (DMEM). […] Treated cells were then placed inside the CO2 incubator for 72 h at 37 °C. Cell viability was assessed by resazurin assay, in which 3 µL of resazurin per well were added using the previously described automated platform. […]
Threshold 2000 nM: GI50 strictly smaller gives 1.0, otherwise 0.0.

{"columns": ["compound", "answer.label"],
 "data": [
  ["[Br-].[Br-].c1cc2c(N3CCCCCC3)nc[n+](Cc3ccc(-c4ccc(C[n+]5cnc(N6CCCCCC6)c6ccsc65)cc4)cc3)c2s1 [Fg-18]", 1.0],
  ["[Br-].[Br-].c1cc2c(s1)c(N1CCCCC1)nc[n+]2Cc1ccc(-c2ccc(C[n+]3cnc(N4CCCCC4)c4sccc43)cc2)cc1 [Fa-24]", 0.0],
  ["[Br-].[Br-].c1cc2c(N3CCCCCC3)nc[n+](Cc3ccc(CCc4ccc(C[n+]5cnc(N6CCCCCC6)c6ccsc65)cc4)cc3)c2s1 [Fg-19]", 1.0],
  ["[Br-].[Br-].c1cc2c(s1)c(N1CCCC1)nc[n+]2Cc1ccc(OCCOc2ccc(C[n+]3cnc(N4CCCC4)c4sccc43)cc2)cc1 [Ff-8]", 1.0],
  ["CN(C)c1cc[n+](Cc2ccc(CCCCc3ccc(C[n+]4ccc(N(C)C)cc4)cc3)cc2)cc1 [MN-48b, reference compound]", 1.0],
  ["[Br-].[Br-].c1cc2c(s1)c(N1CCCC1)nc[n+]2Cc1ccc(CCc2ccc(C[n+]3cnc(N4CCCC4)c4sccc43)cc2)cc1 [Fg-16]", 1.0],
  ["[Br-].[Br-].c1cc2c(s1)c(N1CCCCC1)nc[n+]2Cc1ccc(OCCOc2ccc(C[n+]3cnc(N4CCCCC4)c4sccc43)cc2)cc1 [Fa-28]", 1.0],
  ["[Br-].[Br-].c1cc2c(s1)c(N1CCCC1)cc[n+]2Cc1ccc(OCCOc2ccc(C[n+]3ccc(N4CCCC4)c4sccc43)cc2)cc1 [Ff-2]", 0.0],
  ["[Br-].[Br-].c1cc2c(N3CCCC3)nc[n+](Cc3ccc(-c4ccc(C[n+]5cnc(N6CCCC6)c6ccsc65)cc4)cc3)c2s1 [Fg-14]", 0.0],
  ["[Br-].[Br-].c1cc2c(N3CCCCC3)nc[n+](Cc3ccc(CCCCc4ccc(C[n+]5cnc(N6CCCCC6)c6ccsc65)cc4)cc3)c2s1 [Ff-6]", 1.0],
  ["[Br-].[Br-].c1cc2c(s1)c(N1CCCC1)cc[n+]2Cc1ccc(CCc2ccc(C[n+]3ccc(N4CCCC4)c4sccc43)cc2)cc1 [Fg-11]", 0.0]
]}
